Entry source: the supplement of paper PMC7724964

measured-on: TLN2 312-417 IRS (domain begin residue: 312, domain end residue: 417), Q9Y4G6
Sequence (Q9Y4G6 whole entry): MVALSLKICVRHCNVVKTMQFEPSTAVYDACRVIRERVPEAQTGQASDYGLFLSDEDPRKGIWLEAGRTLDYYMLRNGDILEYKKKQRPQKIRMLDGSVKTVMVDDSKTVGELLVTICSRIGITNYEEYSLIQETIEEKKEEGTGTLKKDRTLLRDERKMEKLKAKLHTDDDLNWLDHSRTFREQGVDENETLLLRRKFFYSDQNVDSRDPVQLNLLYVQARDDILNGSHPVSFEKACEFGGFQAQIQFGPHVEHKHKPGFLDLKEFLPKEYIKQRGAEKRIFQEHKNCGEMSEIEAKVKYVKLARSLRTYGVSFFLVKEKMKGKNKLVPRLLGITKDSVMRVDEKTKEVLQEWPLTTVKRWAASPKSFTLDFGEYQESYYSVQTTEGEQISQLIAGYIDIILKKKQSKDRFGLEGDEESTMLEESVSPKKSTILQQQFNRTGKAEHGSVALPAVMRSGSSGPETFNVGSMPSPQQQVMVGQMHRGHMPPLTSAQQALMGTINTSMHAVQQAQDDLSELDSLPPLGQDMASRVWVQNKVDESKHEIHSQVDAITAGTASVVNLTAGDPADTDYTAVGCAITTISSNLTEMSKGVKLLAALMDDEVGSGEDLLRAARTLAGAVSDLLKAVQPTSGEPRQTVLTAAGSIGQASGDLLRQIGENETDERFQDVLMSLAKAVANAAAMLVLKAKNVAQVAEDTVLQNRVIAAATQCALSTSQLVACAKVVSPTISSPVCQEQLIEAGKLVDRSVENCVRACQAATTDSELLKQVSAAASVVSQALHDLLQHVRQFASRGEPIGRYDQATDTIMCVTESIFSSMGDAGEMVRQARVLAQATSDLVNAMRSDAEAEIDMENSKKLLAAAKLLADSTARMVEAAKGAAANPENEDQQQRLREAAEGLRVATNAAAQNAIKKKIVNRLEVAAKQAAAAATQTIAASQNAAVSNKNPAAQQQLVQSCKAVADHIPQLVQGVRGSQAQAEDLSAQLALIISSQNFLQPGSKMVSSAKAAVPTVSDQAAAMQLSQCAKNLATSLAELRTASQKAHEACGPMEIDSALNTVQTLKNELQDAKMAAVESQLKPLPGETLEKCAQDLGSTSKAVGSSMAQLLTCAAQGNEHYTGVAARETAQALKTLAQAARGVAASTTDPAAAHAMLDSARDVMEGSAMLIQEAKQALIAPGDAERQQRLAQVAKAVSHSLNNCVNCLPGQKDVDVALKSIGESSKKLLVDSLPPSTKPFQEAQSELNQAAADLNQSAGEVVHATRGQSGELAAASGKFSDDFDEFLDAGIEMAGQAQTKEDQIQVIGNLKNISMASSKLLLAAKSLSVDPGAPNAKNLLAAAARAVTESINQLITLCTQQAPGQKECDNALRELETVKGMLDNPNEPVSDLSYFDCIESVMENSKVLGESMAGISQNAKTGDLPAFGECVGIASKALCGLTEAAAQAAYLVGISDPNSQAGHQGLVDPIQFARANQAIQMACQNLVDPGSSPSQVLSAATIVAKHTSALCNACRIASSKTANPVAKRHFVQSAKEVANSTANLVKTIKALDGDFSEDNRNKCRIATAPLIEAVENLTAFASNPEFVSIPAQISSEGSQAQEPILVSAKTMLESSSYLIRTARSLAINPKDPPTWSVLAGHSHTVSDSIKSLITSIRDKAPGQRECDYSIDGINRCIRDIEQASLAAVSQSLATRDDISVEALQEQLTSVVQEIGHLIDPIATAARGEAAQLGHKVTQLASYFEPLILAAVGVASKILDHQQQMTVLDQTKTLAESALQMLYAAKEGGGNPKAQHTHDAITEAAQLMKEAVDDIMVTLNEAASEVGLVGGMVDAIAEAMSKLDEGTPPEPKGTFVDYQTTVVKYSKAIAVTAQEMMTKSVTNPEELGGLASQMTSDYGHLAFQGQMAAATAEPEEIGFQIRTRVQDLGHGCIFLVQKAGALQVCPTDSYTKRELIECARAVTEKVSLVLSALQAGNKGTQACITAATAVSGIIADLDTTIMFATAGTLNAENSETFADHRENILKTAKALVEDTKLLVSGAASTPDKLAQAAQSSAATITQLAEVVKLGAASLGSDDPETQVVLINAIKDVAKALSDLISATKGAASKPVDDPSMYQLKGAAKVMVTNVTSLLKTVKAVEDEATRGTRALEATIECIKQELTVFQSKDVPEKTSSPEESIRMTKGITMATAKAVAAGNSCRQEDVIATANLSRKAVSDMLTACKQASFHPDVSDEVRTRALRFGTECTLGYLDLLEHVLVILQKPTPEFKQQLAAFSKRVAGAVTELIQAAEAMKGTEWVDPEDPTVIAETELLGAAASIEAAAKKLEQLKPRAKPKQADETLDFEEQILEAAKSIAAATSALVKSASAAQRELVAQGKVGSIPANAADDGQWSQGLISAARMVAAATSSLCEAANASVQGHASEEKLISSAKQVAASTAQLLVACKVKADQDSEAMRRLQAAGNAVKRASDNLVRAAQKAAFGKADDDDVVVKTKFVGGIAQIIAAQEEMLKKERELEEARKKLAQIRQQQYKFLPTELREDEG
assay-procedure: phage ELISA signal ratio (GST-PRM binding over GST background); higher = stronger binding of peptide-phage to the PRM
Assign phage ELISA signal ratio to each entry below.
Answers are plain numbers.

The following binders have reported results that may help.
• NENGSYEEHLAWTWGF = 17.6
• QNNFIQLQEWHWLEGW = 11.2
• VENVYYGPYQWEGSFQ = 15.4

Switching to the query record.
Query (binder): `WDLNAQVEHMWQYGIA` ; field requested: phage ELISA signal ratio
15.9
